This collection of values is drawn from patent EP4752152A1.

experiment: Solubility in fasted-state simulated intestinal fluid (FaSSIF); type: physicochemical; details: FaSSIF, pH 6.5, fassif, kinetic from dmso stock, FaSSIF pH 6.5, 300 µM sample solution, room temperature

Molecule: COc1cc(F)cc(F)c1C(O)CCC[C@@H](C)[C@H]1CC[C@H]2[C@H]3[C@H](CC[C@]12C)[C@@]1(C)CC[C@H](O)[C@H](O)[C@@H]1CC3(F)F (some centres unmarked)
solubility at 1 h / µM: 199

Molecule: COc1ccccc1C(O)CCC[C@@H](C)[C@H]1CC[C@H]2C3=C(F)C[C@H]4[C@@H](O)[C@@H](O)CC[C@]4(C)[C@H]3CC[C@]12C (some centres unmarked)
solubility at 1 h / µM: 184

Molecule: C[C@H](CCCC(O)c1nccn1C)[C@H]1CC[C@H]2[C@H]3[C@H](CC[C@]12C)[C@@]1(C)CC[C@H](O)[C@H](O)[C@@H]1CC3(F)F (some centres unmarked)
solubility at 1 h / µM: 305

Molecule: COc1cc(F)nc(OC)c1[C@@H](O)CCC[C@@H](C)[C@H]1CC[C@H]2[C@H]3[C@H](CC[C@]12C)[C@@]1(C)CC[C@H](O)[C@H](O)[C@@H]1CC3(F)F (single isomer, unassigned)
solubility at 1 h / µM: 63

Molecule: COc1cccc(F)c1[C@H](O)CCC[C@@H](C)[C@H]1CC[C@H]2[C@H]3[C@H](CC[C@]12C)[C@@]1(C)CC[C@H](O)[C@H](O)[C@@H]1CC3(F)F
solubility at 1 h / µM: 199

Molecule: COc1nc(F)ccc1C(O)CCC[C@@H](C)[C@H]1CC[C@H]2[C@H]3[C@H](CC[C@]12C)[C@@]1(C)CC[C@H](O)[C@H](O)[C@@H]1CC3(F)F (some centres unmarked) [Compound 108]
solubility at 1 h / µM: 303

Molecule: C[C@H](CCCC(O)c1c(F)cc(F)nc1F)[C@H]1CC[C@H]2[C@H]3[C@H](CC[C@]12C)[C@@]1(C)CC[C@H](O)[C@H](O)[C@@H]1CC3(F)F (some centres unmarked)
solubility at 1 h / µM: 87.4

Molecule: COc1cccc(F)c1C(O)CCC[C@@H](C)[C@H]1CC[C@H]2[C@H]3[C@H](CC[C@]12C)[C@@]1(C)CC[C@H](O)[C@H](O)[C@@H]1CC3(F)F (some centres unmarked)
solubility at 1 h / µM: 281

Molecule: C[C@H](CCCC(O)c1cccc(F)c1)[C@H]1CC[C@H]2[C@H]3[C@H](CC[C@]12C)[C@@]1(C)CC[C@H](O)[C@H](O)[C@@H]1CC3(F)F (some centres unmarked)
solubility at 1 h / µM: 225

Molecule: C[C@H](CCCC(O)c1cccc2c1nnn2C)[C@H]1CC[C@H]2[C@H]3[C@H](CC[C@]12C)[C@@]1(C)CC[C@H](O)[C@H](O)[C@@H]1CC3(F)F (some centres unmarked)
solubility at 1 h / µM: 225

Molecule: C[C@H](CCCC(O)c1nccc2c1OC(F)(F)O2)[C@H]1CC[C@H]2[C@H]3[C@H](CC[C@]12C)[C@@]1(C)CC[C@H](O)[C@H](O)[C@@H]1CC3(F)F (some centres unmarked)
solubility at 1 h / µM: 69.3
